Exercise: for every item that follows, state its recorded inhibition.
- Assay Text: M. tuberculosis H37Rv growth inhibitors, H37Rv strain (AID 1626);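 also: bacteria incubated seven days before Alamar blue readout; 0% = bacteria only wells and 100% = bacteria with antibiotic wells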
- Experimental Context: active compounds read high, concentration not given here
In all, about 220,000 compounds went through this assay and about 2,000 (0.91%) were called active. Roughly 2% stayed inconclusive and do not appear here. Only a sample is shown. Measured potencies and affinities stand elsewhere.
One number for each entry, in %.

Solved entries:
molecule=Cc1cc(NC(=O)CSc2ccc3c(c2)OCCO3)no1 readout_kind=inhibition measured_result=-5.76
molecule=COc1ccc(-c2nnc(SCC(=O)Nc3nncs3)o2)cc1 readout_kind=inhibition measured_result=1.2

I'm hoping you can list inhibition for every molecule here, please.
1. CCC1=CCN(CCc2c(C)[nH]c3ccccc23)CC1
2. Fc1ccc(CSc2nncn2NCc2ccccc2)cc1

A.
1: -0.79; 2: -8.84

====

- Assay Text: M. tuberculosis H37Rv growth inhibitors, H37Rv strain (AID 1626);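 also: bacteria incubated seven days before Alamar blue readout; 0% = bacteria only wells and 100% = bacteria with antibiotic wells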
- Experimental Context: active compounds read high, concentration not given here
Out of some 220,000 compounds screened, about 2,000 (0.91%) were called active. Inconclusive results (about 2%) are left out. A selection follows. Measured potencies and affinities stand elsewhere.
Readout Kind: inhibition (%)
Answers are plain numbers, in %.

The examples below pair each entry with its known result.
molecule=COc1ccc(NC(=O)CCc2nc3ccccc3[nH]2)cc1 measured_result=-2.77
molecule=CCc1ccccc1NC(=O)CN(C)C(=O)CSc1nn(-c2ccc(F)cc2)c(=S)s1 measured_result=-11.2
molecule="O=C(OCC(=O)N1c2ccccc2Sc2ccccc21)C1CC(=O)N(Cc2ccco2)C1 (stereo not drawn)" measured_result=3.33
molecule=CN(C)c1cc(-c2cccc([N+](=O)[O-])c2)oc(=O)c1Cl measured_result=1.64
molecule="CC(Sc1nncn1C)C(=O)Nc1ccc(Cl)cn1 (stereo not drawn)" measured_result=4.99
molecule=CCNC(=S)N/N=C/c1ccc(OCCOc2ccccc2C)cc1 measured_result=-4.17

For each of the molecules below, note its inhibition.
1. CC(C)(C)c1ccc(C(=O)NNC(=O)c2ccc(Cl)cc2)cc1
2. Cc1ccc(OCC(=O)n2nc(C)cc2C)c(C)c1

A.
1: 1.17; 2: 10

====

Could you please report measured inhibition for the items listed next?
- Assay Text: M. tuberculosis H37Rv growth inhibitors, H37Rv strain (AID 1626);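 also: bacteria incubated seven days before Alamar blue readout; 0% = bacteria only wells and 100% = bacteria with antibiotic wells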
- Experimental Context: active compounds read high, concentration not given here
About 2,000 (0.91%) of roughly 220,000 compounds were called active. About 2% were inconclusive and are not listed. Only a sample is shown. Results with a measured potency or affinity are listed apart.

Some solved entries appear below for comparison.
compound="COC(=O)c1ccc(NC(=O)C2CCCO2)cc1 (configuration not stated)" readout_kind=inhibition measured_result="-10.3% (inactive)"
compound="NC(=O)c1ccc(NC(=O)C2CCCO2)cc1 (configuration not stated)" readout_kind=inhibition measured_result="-8.76% (inactive)"
compound="CCCCNC(=O)c1ccc(NC(=O)C2CCCO2)cc1 (configuration not stated)" readout_kind=inhibition measured_result="0.89% (inactive)"

Each of the following entries comes with a recorded value; kindly state inhibition for each.
1. COC(=O)c1ccc(NC(=O)C2C3C=CC(O3)C2C(=O)O)cc1 (configuration not stated)
2. Cc1cccc(NC(=O)COC(=O)c2ccc([N+](=O)[O-])o2)c1C
3. Cc1ccccc1NC(=O)c1ccc([N+](=O)[O-])o1
4. Cc1ccccc1NC(=S)NCCc1ccccn1
5. CCOc1cc(NC(=S)NCC2CCCO2)c(OCC)cc1NC(=O)c1ccc(F)cc1 (configuration not stated)
6. O=C(Nc1nnc(-c2cccnc2)s1)c1cccs1
7. CCCCOc1ccc(C(=O)N/C(=C/C=C/c2ccccc2)C(=O)O)cc1
8. O=C(N/C(=C/C=C\c1ccccc1)C(=O)N1CCOCC1)c1ccc(Br)cc1

A.
-12.1% (inactive)
-1.87% (inactive)
-5.26% (inactive)
1.47% (inactive)
1.9% (inactive)
-11.7% (inactive)
-8.39% (inactive)
64.4% (inactive)

Q. Find the recorded inhibition belonging to CCOC(=O)c1cc(NC(=O)C2CCCO2)cc(C(=O)OCC)c1 (configuration not stated) and report it.
A. 3.41% (inactive)
